# tgt: T1, cynomolgus monkey CD8 alpha on primary cynomolgus CD8+ T cells (cynomolgus monkey, UniProt P01732 23-235 (human entry))
# T1 construct: also called Cyno CD8alpha; cyno CD8A
# protocol.text: flow cytometry, cyno CD8+ T cells

>  <binder>
P283BR9P1363_E6 (designed binder, FN3 domain) LPAPKNLVVSRVTEDSARLSWYARKFISPFDSFLIQYQESEKVGEAIVLTVPGSERSYDLTGLKPGTEYTVSIYGVDVKWEGNRPVASNPLSAIFTT

>  <Cyno T-cell Binding 2 uM (MFI)>
16800

$$$$
>  <binder>
P283FR9P1366_H6 (designed binder, FN3 domain) LPAPKNLVVSRVTEDSARLSWTAPDAAFDSFDIAYPEWPVTGEAIVLTVPGSERSYDLTGLKPGTEYWVIIFGVKGGERSWPLSAIFTT

>  <Cyno T-cell Binding 2 uM (MFI)>
81500

$$$$
